From: patent US8404665B2

Test system: U937 cells
Experiment: U937 leukemia cell growth
Assay type: cell-based, human
Settings: U937 (monocytic leukemia) cells; read-out: IC50, growth
attribute_measured: IC50 (nM)
Numbers only, in nM.

Data request: Entry CCOC(=O)N1CCN(/[N+]([O-])=N/Oc2ccc([N+](=O)[O-])cc2[N+](=O)[O-])CC1 [JS-K] : reported IC50 = ?
Data returned: 300

---

System: 58 human cancer cell lines
Format: cell-based
attribute_measured: CC50 (µM)
Give bare numbers, in µM.

Data request: Entry CCOC(=O)N1CCN(/[N+]([O-])=N/Oc2ccc([N+](=O)[O-])cc2[N+](=O)[O-])CC1 [JS-K] : reported CC50 = ?
Data returned: 29.5

---

Tested on: HL-60 cells
Test: HL-60 leukemia cell growth (Coulter counter or MTT assay)
Format: cell-based, human
Conditions: HL-60, 3 days, Coulter counter, mean of 3 studies; read-out: IC50, cell growth
attribute_measured: IC50 (µM)
Give bare numbers, in µM.

Data request: Entry CCOC(=O)N1CCN(/[N+]([O-])=N/Oc2ccc([N+](=O)[O-])cc2[N+](=O)[O-])CC1 [JS-K] : reported IC50 = ?
Data returned: 0.22
